As shown below, each of these compounds has a reported EC50 value.
- test_target: PAR4 (Homo sapiens (Human), UniProt Q96RI0)
- Sequence (Q96RI0 18-385): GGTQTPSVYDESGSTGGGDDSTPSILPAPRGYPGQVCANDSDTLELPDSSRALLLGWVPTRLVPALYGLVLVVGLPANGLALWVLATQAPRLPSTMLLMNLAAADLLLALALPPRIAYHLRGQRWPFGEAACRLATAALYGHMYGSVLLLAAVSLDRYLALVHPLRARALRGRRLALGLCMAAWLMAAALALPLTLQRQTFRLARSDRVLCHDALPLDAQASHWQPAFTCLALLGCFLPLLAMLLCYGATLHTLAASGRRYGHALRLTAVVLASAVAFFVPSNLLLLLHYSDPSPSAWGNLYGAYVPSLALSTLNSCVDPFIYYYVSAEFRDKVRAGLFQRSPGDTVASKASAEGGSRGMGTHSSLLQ
- measurement_protocol: FLIPR assay in PAR4-expressing HEK293 cells (PAR4 antagonist activity, calcium mobilization)
- Assay type: cell-based
- protocol_conditions: H-Ala-Phe(4-F)-Pro-Gly-Trp-Leu-Val-Lys-Asn-Gly-NH2-induced calcium mobilization
# output: bare number, implied unit pM

Known results for compounds:
COc1cc(OCc2csc(-c3ccc(C(=O)NCCN(C)C)cc3)n2)c2cc(-c3cn4nc(OC)sc4n3)oc2c1 [Example 307] = 24000
COc1cc(OCc2csc(-c3cccnc3)n2)c2cc(-c3cn4nc(OC)sc4n3)oc2c1 [Example 30] = 650

Input line: Entry COc1cc(OCc2csc(C3(O)CCCCC3)n2)c2cc(-c3cn4nc(OC)sc4n3)oc2c1 [Example 133] has what EC50?
Output line: 370

Input line: Also, COc1cc(OCc2csc(C3(O)CC(C)OC(C)C3)n2)c2cc(-c3cn4nc([C@H](C)F)sc4n3)oc2c1 (stereo partly shown) [Example 198] please.
Output line: 420

----------
// reported pEC50 for each item listed
- test_target: PAR4 (Homo sapiens (Human))
- measurement_protocol: FLIPR assay in PAR4-expressing HEK293 cells (PAR4 antagonist activity, calcium mobilization)
- Assay type: cell-based
- protocol_conditions: H-Ala-Phe(4-F)-Pro-Gly-Trp-Leu-Val-Lys-Asn-Gly-NH2-induced calcium mobilization
Notebook: values listed as pEC50 are -log10 of the concentration (mol/L).

As a guide, the following entries are already answered.
COc1cc(OCc2cscn2)c2cc(-c3cn4nc(OC)sc4n3)oc2c1 [Example 34] = 8.92
COc1cc(OCc2csc(-c3ccc4c(c3)OCO4)n2)c2cc(-c3cn4nc(C)ccc4n3)oc2c1 [Example 219] = 9.00
CCCN(C(=O)c1ccc(-c2nc(COc3cc(OC)cc4oc(-c5cn6nc(OC)sc6n5)cc34)cs2)cc1)C(C)C1CC1 (stereo not drawn) [Example 313] = 9.37

Input line: Tell me the measured pEC50 of COc1cc(OCc2csc(-c3ccc(Cl)cc3)n2)c2cc(-c3cn4nc(C)ccc4n3)oc2c1 [Example 209] , please.
Output line: 8.92

Input line: Also, COc1cc(OCc2csc(Br)n2)c2cc(-c3cn4nc(OC)sc4n3)oc2c1 [Example 35] please.
Output line: 8.89

Input line: Same for COc1cc(OCc2csc(NCc3cccc(N(C)C)c3)n2)c2cc(-c3cn4nc(C)ccc4n3)oc2c1 [Example 269]
Output line: 8.60

Input line: Cool, now COc1cc(OCc2csc(-c3ccc(S(C)(=O)=O)cc3)n2)c2cc(-c3cn4nc(C)ccc4n3)oc2c1 [Example 234]
Output line: 9.18

----------
- test_target: PAR4 (Homo sapiens (Human), UniProt Q96RI0)
- measurement_protocol: FLIPR assay in PAR4-expressing HEK293 cells (PAR4 antagonist activity, calcium mobilization)
- Format: cell-based
- protocol_conditions: H-Ala-Phe(4-F)-Pro-Gly-Trp-Leu-Val-Lys-Asn-Gly-NH2-induced calcium mobilization
- Source text: The FLIPR assay is an exemplary in vitro assay for measuring the activity of the PAR4 antagonists of the present invention. In this assay, intracellular calcium mobilization is induced in PAR4 expressing cells by a PAR4 agonist and calcium mobilization is monitored. See, e.g., Example A. […]
# pEC50 listing for each entry below
In simple prose, pEC50 is minus the logarithm base ten of a concentration in moles per litre.

Some compounds with known pEC50 results, for comparison:
COc1cc(OCc2csc(N(C)CCC#N)n2)c2cc(-c3cn4nc(OC)sc4n3)oc2c1 = 9.01
COc1cc(OCc2csc(-c3ccc(Cl)nc3)n2)c2cc(-c3cn4nc(C)ccc4n3)oc2c1 = 8.55
COc1cc(OCc2csc(N3CC4(COC4)C3)n2)c2cc(-c3cn4nc(OC)sc4n3)oc2c1 = 9.17

Input line: Need pEC50 of `COc1cc(OCc2csc(C3(NC(=O)CNC(=O)OC(C)(C)C)CCOCC3)n2)c2cc(-c3cn4nc(OC)sc4n3)oc2c1` , thanks.
Output line: 9.17
